Origin of measurements: paper PMC11477621

PROTOCOL NOTES: Pharmacokinetic study in male ICR mice
Assay type: in vivo
COND: mouse, plasma, po, 5 mg/kg
MEASUREMENT KIND: Cmax (ng/mL)

COMPOUND	ENDPOINT UNIT	VAL
CC(=O)c1cccn1CCc1ccc(C(=O)Nc2ccccc2N)cc1 [Compound 20]	ng/mL	48.3

---

TARGET ENTITY: HDAC1 (Homo sapiens)
Construct: purchased BPS #50001
Sequence (Q13547 whole entry): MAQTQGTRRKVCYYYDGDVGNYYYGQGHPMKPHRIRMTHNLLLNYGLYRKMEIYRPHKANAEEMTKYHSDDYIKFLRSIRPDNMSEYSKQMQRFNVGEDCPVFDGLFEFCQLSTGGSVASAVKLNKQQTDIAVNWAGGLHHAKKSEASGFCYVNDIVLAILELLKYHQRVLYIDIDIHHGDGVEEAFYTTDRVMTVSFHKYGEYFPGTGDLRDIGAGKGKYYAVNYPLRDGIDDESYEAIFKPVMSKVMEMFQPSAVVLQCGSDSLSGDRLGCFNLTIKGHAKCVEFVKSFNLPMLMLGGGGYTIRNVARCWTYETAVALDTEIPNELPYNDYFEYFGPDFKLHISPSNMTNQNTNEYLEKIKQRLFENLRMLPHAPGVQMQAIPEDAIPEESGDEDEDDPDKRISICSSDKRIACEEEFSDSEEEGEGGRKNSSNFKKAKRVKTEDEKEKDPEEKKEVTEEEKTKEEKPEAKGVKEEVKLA
PROTOCOL NOTES: HDAC inhibition assay (HTRF), HDAC1;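 further: HTRF detection with streptavidin-XL665 plus Eu(K)-labelled anti-H3K9me0 antibody, two independent runs with duplicate wells per concentration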
Format: biochemical
COND: at 1 μM
inhibition at 1 µM values by entry
MEASUREMENT KIND: inhibition at 1 µM (%)

COMPOUND	TARGET ENTITY	VAL
Cc1ccc2c(ccn2CCCCCCC(=O)NO)c1	HDAC1 (Homo sapiens)	96.1
O=C(CCCCCCn1ccc2ccccc21)NO [Compound 5f, N-hydroxy-7-(1H-indol-1-yl)heptanamide]	HDAC1 (Homo sapiens)	96.8
O=C(CCCCCCn1ccc2cc(Cl)ccc21)NO	HDAC1 (Homo sapiens)	96.2
O=C(CCCCCCn1ccc2ccc(F)cc21)NO	HDAC1 (Homo sapiens)	96.5
O=C(CCCCCCn1ccc2cc(Br)ccc21)NO	HDAC1 (Homo sapiens)	96.2
